Could you please report measured isoTOP-ABPP reactivity ratio at lysine P04179_K68 for the items listed next?
# assayed.system: SOD2 Superoxide dismutase (Homo sapiens)
# Construct: isoTOP-ABPP experiments performed in cell lysates (in vitro); endogenous in cells; host or cells: MDA-MB-231 soluble lysate
# Sequence (P04179 25-222): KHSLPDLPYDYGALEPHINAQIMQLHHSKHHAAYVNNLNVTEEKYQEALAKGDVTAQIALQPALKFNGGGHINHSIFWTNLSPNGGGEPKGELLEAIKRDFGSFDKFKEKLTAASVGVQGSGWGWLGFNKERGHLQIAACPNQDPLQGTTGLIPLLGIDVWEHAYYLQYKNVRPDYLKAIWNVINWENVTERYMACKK
# protocol.text: competitive isoTOP-ABPP
# Type: binding
# experimental.context: 50 uM, 231 sol, in vitro
Give bare numbers.

(Q) Please report the recorded isoTOP-ABPP reactivity ratio at lysine P04179_K68 for CCn1cc(C(=O)Oc2c(F)c(F)c(F)c(F)c2F)c(=O)c2ccc(C)nc21 .
(A) 0.8

(Q) # lookup: isoTOP-ABPP reactivity ratio at lysine P04179_K68 of O=C(Oc1ccc([N+](=O)[O-])cc1[N+](=O)[O-])C(c1ccccc1)c1ccccc1 [fragment 30, 2,4-Dinitrophenyl 2,2-diphenylacetate]
(A) 1.1

(Q) Data request, read-out isoTOP-ABPP reactivity ratio at lysine P04179_K68, for Cn1cc(CC(=O)Oc2ccc([N+](=O)[O-])cc2[N+](=O)[O-])c2ccccc21
(A) 1.1

Hi! Can you tell me isoTOP-ABPP reactivity ratio at lysine P04179_K68 for each of these compounds?
1. O=C(CN1C(=O)c2ccccc2C1=O)Oc1c(F)c(F)c(F)c(F)c1F
2. O=C(CCc1coc2cc(F)ccc2c1=O)Oc1c(F)c(F)c(F)c(F)c1F

(A)
1. 0.9
2. 1.2

(Q) # query: isoTOP-ABPP reactivity ratio at lysine P04179_K68 of entry O=C(Oc1ccc([N+](=O)[O-])cc1[N+](=O)[O-])c1cc(C(F)(F)F)cc(C(F)(F)F)c1
(A) 1.5

* * *

Exercise: state measured isoTOP-ABPP ratio, lysine Q9NTK5_K248 for each of the molecules provided.
# assayed.system: OLA1 Obg-like ATPase 1 (Homo sapiens)
# Construct: endogenous in cells; host or cells: MDA-MB-231 (soluble fraction of lysate)
# protocol.text: competitive isoTOP-ABPP
# Format: binding
# experimental.context: 50 uM_231_sol_in vitro
Numbers only.

Worked examples follow.
(Q) Quick one: isoTOP-ABPP ratio, lysine Q9NTK5_K248 of N#Cc1ccc(C(=O)Oc2ccc([N+](=O)[O-])cc2[N+](=O)[O-])cc1 [fragment 44, 2,4-Dinitrophenyl 4-cyanobenzoate] ?
(A) 1.1

(Q) # isoTOP-ABPP ratio, lysine Q9NTK5_K248 lookup, item O=C(Oc1c(F)c(F)cc(F)c1F)c1cc(C(F)(F)F)cc(C(F)(F)F)c1 [fragment 48]
(A) 1.0

(Q) Please look up its isoTOP-ABPP ratio, lysine Q9NTK5_K248: O=C(CCc1ccc2c(c1)OCO2)Oc1ccc([N+](=O)[O-])cc1[N+](=O)[O-] [fragment 45]
(A) 1.0

(Q) Name the recorded isoTOP-ABPP ratio, lysine Q9NTK5_K248 for O=C(Oc1c(F)c(F)c(C(F)(F)F)c(F)c1F)c1cc(C(F)(F)F)cc(C(F)(F)F)c1 [fragment 47] .
(A) 1.2

(Q) Field request: isoTOP-ABPP ratio, lysine Q9NTK5_K248 | item: O=C(ON1C(=O)CCC1=O)c1cc(C(F)(F)F)cc(C(F)(F)F)c1 [fragment 46]
(A) 1.2

Let us move to another entry and its isoTOP-ABPP ratio, lysine Q9NTK5_K248.
(Q) What value of isoTOP-ABPP ratio, lysine Q9NTK5_K248 has been recorded for this entry: NC(=O)c1cc(C(F)(F)F)cc(C(F)(F)F)c1 [fragment 51, reference compound]
(A) 0.9

Each recorded value in this set is attributed to patent US20210255193A1.
